Reference source: paper PMC9482650

- MEASURED ON: ARHGEF12, Q9NZN5-2
- Sequence (Q9NZN5 other isoform, or with tags, fused parts or gaps): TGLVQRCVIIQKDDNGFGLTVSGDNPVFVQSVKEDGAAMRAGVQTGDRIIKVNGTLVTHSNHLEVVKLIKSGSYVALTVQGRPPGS
- TEST DETAILS: holdup assay
- Parameters: key: below the threshold = too weak to quantify, mostly under pKd 3.1 to 4
- TEST CONTEXT: plain residues with an end cap or a label only (N-terminal biotin on a linker: ttds)
VALUE KIND: pKd
Reply with just the number.

Exercise: pKd lookup needed for QSARYRDTEL [TJP2, Q9UDY2] , thanks.
Key: 4.27

Exercise: pKd lookup needed for GQDSREETQL [KCNT2, Q6UVM3] , thanks.
Key: 4.67

Exercise: pKd lookup needed for TVASEKESVM [SLC1A5, Q15758] , thanks.
Key: 3.65

Exercise: pKd lookup needed for ERKLSSESQV [LRP4, O75096] , thanks.
Key: 3.7
